System: SW 982 tumor spheroid viability
protocol.notes: Anticancer human tumor SW 982 cell line growth inhibition;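 also: spheroids exposed to compound for 7 days before readout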
assay.conditions: second compound 0.0949 µM; first compound 3 µM; hits give low values; spheroids with HUVEC and MSC
Measured viability, T/C values are reported for all entries that follow.
All answers are understood in %, so give the number only.

1) Cc1sc2c(c1C)C(c1ccc(Cl)cc1)=NC(CC(=O)Nc1ccc(O)cc1)c1nnc(C)n1-2 (centres undefined) + CC[C@@]1(O)C(=O)OCc2c1cc1n(c2=O)Cc2cc3c(CN(C)C)c(O)ccc3nc2-1; 29.2
2) Cn1ncnc1[C@H]1c2n[nH]c(=O)c3cc(F)cc(c23)N[C@@H]1c1ccc(F)cc1 + CC[C@@]1(O)C(=O)OCc2c1cc1n(c2=O)Cc2cc3c(CN(C)C)c(O)ccc3nc2-1; 40.9
3) O=C(c1cc(Cc2n[nH]c(=O)c3ccccc23)ccc1F)N1CCN(C(=O)C2CC2)CC1 + CC[C@@]1(O)C(=O)OCc2c1cc1n(c2=O)Cc2cc3c(CN(C)C)c(O)ccc3nc2-1; 60.2

Query: State, in one line, measured viability, T/C of CNCc1ccc(-c2cc(-c3nc(-c4ccc(S(=O)(=O)C(C)C)cc4)cnc3N)on2)cc1 + CC[C@@]1(O)C(=O)OCc2c1cc1n(c2=O)Cc2cc3c(CN(C)C)c(O)ccc3nc2-1
Reply: 12.4

----------
Entries and their viability, T/C
Test system: SW 982 tumor spheroid viability
protocol.notes: Anticancer human tumor SW 982 cell line growth inhibition;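 also: spheroids exposed to compound for 7 days before readout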
assay.conditions: second compound 3.16 µM; first compound 0.0316 µM; hits give low values; spheroids with HUVEC and MSC

Guide cases for viability, T/C, answers given:
1. [2H]c1nc(C)nc([2H])c1-c1cc(NC[C@@H](C)c2cccc3c(C(=O)NC)ccnc23)ncn1 + Cn1nnc2c(C(N)=O)ncn2c1=O; 92.6%
2. COc1cc(C)[nH]c(=O)c1CN1CCc2c(Cl)cc(C(OC)C3COC3)c(Cl)c2C1=O (stereo unspecified) + Cn1nnc2c(C(N)=O)ncn2c1=O; 94.3%
3. COc1ccc([C@@H](O)c2cc(-c3ncnc4cc(N5CCOCC5)ccc34)c(F)cc2Cl)nn1 + Cn1nnc2c(C(N)=O)ncn2c1=O; 76.7%

Query: Give me measured viability, T/C, please, for this compound: CC1COCCN1c1cc(-c2ccnn2C)c2ccnc(-c3ccn[nH]3)c2n1 (stereo unspecified) + Cn1nnc2c(C(N)=O)ncn2c1=O
Reply: 26.9%

Query: Give the measured viability, T/C for Cc1cc(C)c(CNC(=O)c2cc(-c3ccc(CN4CCOCC4)cc3)cc3c2cnn3C2CCCC2)c(=O)[nH]1 + Cn1nnc2c(C(N)=O)ncn2c1=O
Reply: 88.4%

Query: Recall and state the measured viability, T/C for CC(C)n1c(=O)n(C)c2cnc3cc(F)c(-c4ccc(OCCCN5CCCCC5)nc4)cc3c21 + Cn1nnc2c(C(N)=O)ncn2c1=O .
Reply: 91%

----------
System: SW 982 tumor spheroid viability
protocol.notes: Anticancer human tumor SW 982 cell line growth inhibition;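 also: spheroids exposed to compound for 7 days before readout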
assay.conditions: second compound 0.00949 µM; first compound 1 µM; hits give low values; spheroids with HUVEC and MSC
observation.type: viability, T/C (%)
Number only, in %; omit the unit.

Take a look at these entries with their results.
1. CC1COCCN1c1cc(-c2ccnn2C)c2ccnc(-c3ccn[nH]3)c2n1 (stereo not drawn) + CC[C@@]1(O)C(=O)OCc2c1cc1n(c2=O)Cc2cc3c(CN(C)C)c(O)ccc3nc2-1; 8.21
2. COc1cc(C)[nH]c(=O)c1CN1CCc2c(Cl)cc(C(OC)C3COC3)c(Cl)c2C1=O (stereo not drawn) + CC[C@@]1(O)C(=O)OCc2c1cc1n(c2=O)Cc2cc3c(CN(C)C)c(O)ccc3nc2-1; 79.4

Query: Look up and report measured viability, T/C for this entry: [2H]c1nc(C)nc([2H])c1-c1cc(NC[C@@H](C)c2cccc3c(C(=O)NC)ccnc23)ncn1 + CC[C@@]1(O)C(=O)OCc2c1cc1n(c2=O)Cc2cc3c(CN(C)C)c(O)ccc3nc2-1
Reply: 95.2

----------
// viability, T/C lookup, one value per entry
Tested on: SW 982 tumor spheroid viability
protocol.notes: Anticancer human tumor SW 982 cell line growth inhibition;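 also: spheroids exposed to compound for 7 days before readout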
assay.conditions: second compound 31.6 µM; first compound 0.0949 µM; hits give low values; spheroids with HUVEC and MSC

Examples with their reported viability, T/C follow.
1. CNCc1ccc(-c2cc(-c3nc(-c4ccc(S(=O)(=O)C(C)C)cc4)cnc3N)on2)cc1 + Cn1nnc2c(C(N)=O)ncn2c1=O; 51.6%
2. Cc1sc2c(c1C)C(c1ccc(Cl)cc1)=NC(CC(=O)Nc1ccc(O)cc1)c1nnc(C)n1-2 (centres undefined) + Cn1nnc2c(C(N)=O)ncn2c1=O; 53.9%
3. Cn1ncnc1[C@H]1c2n[nH]c(=O)c3cc(F)cc(c23)N[C@@H]1c1ccc(F)cc1 + Cn1nnc2c(C(N)=O)ncn2c1=O; 53%

As a next step, examine the compound that follows.
Query: Give the reported value of viability, T/C for this record: O=C(c1cc(Cc2n[nH]c(=O)c3ccccc23)ccc1F)N1CCN(C(=O)C2CC2)CC1 + Cn1nnc2c(C(N)=O)ncn2c1=O
Reply: 66.6%

----------
System: SW 982 tumor spheroid viability
protocol.notes: Anticancer human tumor SW 982 cell line growth inhibition;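 also: spheroids exposed to compound for 7 days before readout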
assay.conditions: second compound 30 pM; first compound 0.3 µM; hits give low values; spheroids with HUVEC and MSC
observation.type: viability, T/C (%)
The figure you give is taken to be in %; do not add the unit.

Sample answers from the record:
1. CNCc1ccc(-c2cc(-c3nc(-c4ccc(S(=O)(=O)C(C)C)cc4)cnc3N)on2)cc1 + COc1cc2c(cc1O)CCNC21CSC2c3c(OC(C)=O)c(C)c4c(c3C(COC1=O)N1C(O)C3Cc5cc(C)c(OC)c(O)c5C(C21)N3C)OCO4; 33.4
2. Cn1ncnc1[C@H]1c2n[nH]c(=O)c3cc(F)cc(c23)N[C@@H]1c1ccc(F)cc1 + COc1cc2c(cc1O)CCNC21CSC2c3c(OC(C)=O)c(C)c4c(c3C(COC1=O)N1C(O)C3Cc5cc(C)c(OC)c(O)c5C(C21)N3C)OCO4; 85
3. Cc1sc2c(c1C)C(c1ccc(Cl)cc1)=NC(CC(=O)Nc1ccc(O)cc1)c1nnc(C)n1-2 (centres undefined) + COc1cc2c(cc1O)CCNC21CSC2c3c(OC(C)=O)c(C)c4c(c3C(COC1=O)N1C(O)C3Cc5cc(C)c(OC)c(O)c5C(C21)N3C)OCO4; 46.2

Query: Give me measured viability, T/C, please, for this molecule: O=C(c1cc(Cc2n[nH]c(=O)c3ccccc23)ccc1F)N1CCN(C(=O)C2CC2)CC1 + COc1cc2c(cc1O)CCNC21CSC2c3c(OC(C)=O)c(C)c4c(c3C(COC1=O)N1C(O)C3Cc5cc(C)c(OC)c(O)c5C(C21)N3C)OCO4
Reply: 93.2

----------
System: SW 982 tumor spheroid viability
protocol.notes: Anticancer human tumor SW 982 cell line growth inhibition;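 also: spheroids exposed to compound for 7 days before readout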
assay.conditions: second compound 0.3 µM; first compound 0.3 µM; hits give low values; spheroids with HUVEC and MSC
Readings of viability, T/C for the listed molecules

1) O=C(c1cc(Cc2n[nH]c(=O)c3ccccc23)ccc1F)N1CCN(C(=O)C2CC2)CC1 + CC[C@@]1(O)C(=O)OCc2c1cc1n(c2=O)Cc2cc3c(CN(C)C)c(O)ccc3nc2-1; 43.4%

Query: Give me measured viability, T/C, please, for this molecule: Cn1ncnc1[C@H]1c2n[nH]c(=O)c3cc(F)cc(c23)N[C@@H]1c1ccc(F)cc1 + CC[C@@]1(O)C(=O)OCc2c1cc1n(c2=O)Cc2cc3c(CN(C)C)c(O)ccc3nc2-1
Reply: 41.9%

Query: For the molecule Cc1sc2c(c1C)C(c1ccc(Cl)cc1)=NC(CC(=O)Nc1ccc(O)cc1)c1nnc(C)n1-2 (centres undefined) + CC[C@@]1(O)C(=O)OCc2c1cc1n(c2=O)Cc2cc3c(CN(C)C)c(O)ccc3nc2-1 , give its reported viability, T/C.
Reply: 45.6%

Query: Write down viability, T/C measured for item CNCc1ccc(-c2cc(-c3nc(-c4ccc(S(=O)(=O)C(C)C)cc4)cnc3N)on2)cc1 + CC[C@@]1(O)C(=O)OCc2c1cc1n(c2=O)Cc2cc3c(CN(C)C)c(O)ccc3nc2-1
Reply: 23.8%

----------
Below is a list of entries, each paired with its recorded viability, T/C value.
System: SW 982 tumor spheroid viability
protocol.notes: Anticancer human tumor SW 982 cell line growth inhibition;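 also: spheroids exposed to compound for 7 days before readout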
assay.conditions: second compound 0.003 µM; first compound 0.0316 µM; hits give low values; spheroids with HUVEC and MSC

Worked set:
1. COc1ccc([C@@H](O)c2cc(-c3ncnc4cc(N5CCOCC5)ccc34)c(F)cc2Cl)nn1 + COc1cc2c(cc1O)CCNC21CSC2c3c(OC(C)=O)c(C)c4c(c3C(COC1=O)N1C(O)C3Cc5cc(C)c(OC)c(O)c5C(C21)N3C)OCO4; 0.88%
2. COc1cc(C)[nH]c(=O)c1CN1CCc2c(Cl)cc(C(OC)C3COC3)c(Cl)c2C1=O (configuration not stated) + CC[C@@]1(O)C(=O)OCc2c1cc1n(c2=O)Cc2cc3c(CN(C)C)c(O)ccc3nc2-1; 87.8%
3. COc1cc(C)[nH]c(=O)c1CN1CCc2c(Cl)cc(C(OC)C3COC3)c(Cl)c2C1=O (configuration not stated) + COc1cc2c(cc1O)CCNC21CSC2c3c(OC(C)=O)c(C)c4c(c3C(COC1=O)N1C(O)C3Cc5cc(C)c(OC)c(O)c5C(C21)N3C)OCO4; 0.42%
4. [2H]c1nc(C)nc([2H])c1-c1cc(NC[C@@H](C)c2cccc3c(C(=O)NC)ccnc23)ncn1 + CC[C@@]1(O)C(=O)OCc2c1cc1n(c2=O)Cc2cc3c(CN(C)C)c(O)ccc3nc2-1; 90.1%

Query: Query viability, T/C for CC(C)n1c(=O)n(C)c2cnc3cc(F)c(-c4ccc(OCCCN5CCCCC5)nc4)cc3c21 + COc1cc2c(cc1O)CCNC21CSC2c3c(OC(C)=O)c(C)c4c(c3C(COC1=O)N1C(O)C3Cc5cc(C)c(OC)c(O)c5C(C21)N3C)OCO4
Reply: 0.57%

Query: Return the recorded viability, T/C value; entry: [2H]c1nc(C)nc([2H])c1-c1cc(NC[C@@H](C)c2cccc3c(C(=O)NC)ccnc23)ncn1 + COc1cc2c(cc1O)CCNC21CSC2c3c(OC(C)=O)c(C)c4c(c3C(COC1=O)N1C(O)C3Cc5cc(C)c(OC)c(O)c5C(C21)N3C)OCO4
Reply: 0.62%

Query: Note viability, T/C for the compound shown: Cc1cc(C)c(CNC(=O)c2cc(-c3ccc(CN4CCOCC4)cc3)cc3c2cnn3C2CCCC2)c(=O)[nH]1 + COc1cc2c(cc1O)CCNC21CSC2c3c(OC(C)=O)c(C)c4c(c3C(COC1=O)N1C(O)C3Cc5cc(C)c(OC)c(O)c5C(C21)N3C)OCO4
Reply: 0.71%
